Every entry's value here was drawn from the supplement of paper PMC9112550.

System: Escherichia coli TOP10
experiment: shrunken log2 fold change of peptide-encoding DNA abundance (4.5 h post-induction vs induction); higher = less antimicrobial activity (less host growth inhibition)
assay conditions: time post-induction: 4.5 h; library: site-saturation at positions 5, 18, 19, 20

sequence record: RRIRSRPPRLPRPRPRPHYLPRP
shrunken log2 fold change: -0.403
//
sequence record: RRIRDRPPRLPRPRPRPDETPRP
shrunken log2 fold change: 0.0461
//
sequence record: RRIRGRPPRLPRPRPRPNYFPRP
shrunken log2 fold change: 0.0394
//
sequence record: RRIRNRPPRLPRPRPRPCDPPRP
shrunken log2 fold change: -0.114
//
sequence record: RRIRGRPPRLPRPRPRPQERPRP
shrunken log2 fold change: 0.595
//
sequence record: RRIRIRPPRLPRPRPRPMFEPRP
shrunken log2 fold change: -0.0768
//
sequence record: RRIRMRPPRLPRPRPRPITAPRP
shrunken log2 fold change: 0.244
//
sequence record: RRIRCRPPRLPRPRPRPKQTPRP
shrunken log2 fold change: -0.0521

* * *

Tested on: Escherichia coli TOP10;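 also: peptides expressed intracellularly from a pBAD plasmid library in pooled LB shake-flask culture, induced with 0.3% L-arabinose, DNA abundance read by NGS, three biological replicates, DESeq2 with apeglm shrinkage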
experiment: shrunken log2 fold change of peptide-encoding DNA abundance (4.5 h post-induction vs induction); higher = less antimicrobial activity (less host growth inhibition)
assay conditions: time post-induction: 4.5 h; library: site-saturation at positions 5, 18, 19, 20

sequence record: RRIRARPPRLPRPRPRPDDEPRP
shrunken log2 fold change: 1.43
--
sequence record: RRIRFRPPRLPRPRPRPHNDPRP
shrunken log2 fold change: -0.81
--
sequence record: RRIRWRPPRLPRPRPRPYPFPRP
shrunken log2 fold change: -0.0811
--
sequence record: RRIRDRPPRLPRPRPRPKRSPRP
shrunken log2 fold change: -0.0252
--
sequence record: RRIRMRPPRLPRPRPRPDLAPRP
shrunken log2 fold change: 1.4
--
sequence record: RRIRARPPRLPRPRPRPFDFPRP
shrunken log2 fold change: 0.00925
--
sequence record: RRIRCRPPRLPRPRPRPESQPRP
shrunken log2 fold change: -0.0239
--
sequence record: RRIRMRPPRLPRPRPRPKMPPRP
shrunken log2 fold change: 0.493
--
sequence record: RRIRRRPPRLPRPRPRPDVDPRP
shrunken log2 fold change: 0.505
--
sequence record: RRIRDRPPRLPRPRPRPAYMPRP
shrunken log2 fold change: -0.342
--
sequence record: RRIRGRPPRLPRPRPRPMSLPRP
shrunken log2 fold change: -0.0288
--
sequence record: RRIRIRPPRLPRPRPRPAGQPRP
shrunken log2 fold change: 0.0455
--
sequence record: RRIRLRPPRLPRPRPRPMVWPRP
shrunken log2 fold change: 0.0457
--
sequence record: RRIRRRPPRLPRPRPRPQSFPRP
shrunken log2 fold change: 0.0366
--
sequence record: RRIRFRPPRLPRPRPRPMCVPRP
shrunken log2 fold change: -0.405
--
sequence record: RRIRDRPPRLPRPRPRPTRQPRP
shrunken log2 fold change: 0.228
--
sequence record: RRIRWRPPRLPRPRPRPMNYPRP
shrunken log2 fold change: -0.364
--
sequence record: RRIRYRPPRLPRPRPRPWKYPRP
shrunken log2 fold change: -0.0732
--
sequence record: RRIRDRPPRLPRPRPRPGCEPRP
shrunken log2 fold change: 0.852
--
sequence record: RRIRKRPPRLPRPRPRPESAPRP
shrunken log2 fold change: 1.72
--
sequence record: RRIRERPPRLPRPRPRPERGPRP
shrunken log2 fold change: 0.119
--
sequence record: RRIRERPPRLPRPRPRPLGCPRP
shrunken log2 fold change: -0.166
--
sequence record: RRIRIRPPRLPRPRPRPKAGPRP
shrunken log2 fold change: 0.0458
--
sequence record: RRIRWRPPRLPRPRPRPYVDPRP
shrunken log2 fold change: -0.171
--
sequence record: RRIRLRPPRLPRPRPRPFSKPRP
shrunken log2 fold change: -0.456
--
sequence record: RRIRIRPPRLPRPRPRPTSNPRP
shrunken log2 fold change: -0.807
--
sequence record: RRIRFRPPRLPRPRPRPENKPRP
shrunken log2 fold change: -0.422
--
sequence record: RRIRFRPPRLPRPRPRPRQAPRP
shrunken log2 fold change: 0.128
--
sequence record: RRIRQRPPRLPRPRPRPSRNPRP
shrunken log2 fold change: -0.0593
--
sequence record: RRIRLRPPRLPRPRPRPEVGPRP
shrunken log2 fold change: -0.0231
--
sequence record: RRIRPRPPRLPRPRPRPSKAPRP
shrunken log2 fold change: -0.175
--
sequence record: RRIRPRPPRLPRPRPRPGWAPRP
shrunken log2 fold change: 0.623
